# subject-of-test: canine FcRn complex (FcRn-alpha subunit and beta-microglobulin), His-tagged, biotin labeled (canine)
# method-description: SPR (Biacore), biotin-FcRn captured on SA surface, IgG flowed over, pH 6, 15 C
pKd: −log10 of the molar value.

binder: canine IgGB (65) mAb with mutation D312F (antibody, part only; not given: Variable domains, not shown: another chain or arm of the molecule) constant: ASTTAPSVFPLAPSCGSTSGSTVALACLVSGYFPEPVTVSWNSGSLTSGVHTFPSVLQSSGLYSLSSMVTVPSSRWPSETFTCNVAHPASKTKVDKPVPKRENGRVPRPPDCPKCPAPEMLGGPSVFIFPPKPKDTLLIARTPEVTCVVVDLDPEDPEVQISWFVDGKQMQTAKTQPREEQFNGTYRVVSVLPIGHQFWLKGKQFTCKVNNKALPSPIERTISKARGQAHQPSVYVLPPSREELSKNTVSLTCLIKDFFPPDIDVEWQSNGQQEPESKYRTTPPQLDEDGSYFLYSKLSVDKSRWQRGDTFICAVMHEALHNHYTQESLSHSPGK
pKd: 7.66

binder: canine IgGB (65) mAb with mutation Q311N (antibody, part only; not given: variable domains of unnamed mAb, not shown: another chain or arm of the molecule) constant: ASTTAPSVFPLAPSCGSTSGSTVALACLVSGYFPEPVTVSWNSGSLTSGVHTFPSVLQSSGLYSLSSMVTVPSSRWPSETFTCNVAHPASKTKVDKPVPKRENGRVPRPPDCPKCPAPEMLGGPSVFIFPPKPKDTLLIARTPEVTCVVVDLDPEDPEVQISWFVDGKQMQTAKTQPREEQFNGTYRVVSVLPIGHNDWLKGKQFTCKVNNKALPSPIERTISKARGQAHQPSVYVLPPSREELSKNTVSLTCLIKDFFPPDIDVEWQSNGQQEPESKYRTTPPQLDEDGSYFLYSKLSVDKSRWQRGDTFICAVMHEALHNHYTQESLSHSPGK
pKd: 7.99

binder: canine IgGB (65) mAb with mutation Q311Y (antibody, part only; not given: variable domains of unnamed mAb, not shown: another chain or arm of the molecule) constant: ASTTAPSVFPLAPSCGSTSGSTVALACLVSGYFPEPVTVSWNSGSLTSGVHTFPSVLQSSGLYSLSSMVTVPSSRWPSETFTCNVAHPASKTKVDKPVPKRENGRVPRPPDCPKCPAPEMLGGPSVFIFPPKPKDTLLIARTPEVTCVVVDLDPEDPEVQISWFVDGKQMQTAKTQPREEQFNGTYRVVSVLPIGHYDWLKGKQFTCKVNNKALPSPIERTISKARGQAHQPSVYVLPPSREELSKNTVSLTCLIKDFFPPDIDVEWQSNGQQEPESKYRTTPPQLDEDGSYFLYSKLSVDKSRWQRGDTFICAVMHEALHNHYTQESLSHSPGK
pKd: 8.58

binder: canine IgGB (65) mAb with mutation A426V (antibody, part only; not given: Variable domains, not shown: another chain or arm of the molecule) constant: ASTTAPSVFPLAPSCGSTSGSTVALACLVSGYFPEPVTVSWNSGSLTSGVHTFPSVLQSSGLYSLSSMVTVPSSRWPSETFTCNVAHPASKTKVDKPVPKRENGRVPRPPDCPKCPAPEMLGGPSVFIFPPKPKDTLLIARTPEVTCVVVDLDPEDPEVQISWFVDGKQMQTAKTQPREEQFNGTYRVVSVLPIGHQDWLKGKQFTCKVNNKALPSPIERTISKARGQAHQPSVYVLPPSREELSKNTVSLTCLIKDFFPPDIDVEWQSNGQQEPESKYRTTPPQLDEDGSYFLYSKLSVDKSRWQRGDTFICVVMHEALHNHYTQESLSHSPGK
pKd: 8.04

binder: canine IgGB (65) mAb with mutation A426N (antibody, part only; not given: Variable domains, not shown: another chain or arm of the molecule) constant: ASTTAPSVFPLAPSCGSTSGSTVALACLVSGYFPEPVTVSWNSGSLTSGVHTFPSVLQSSGLYSLSSMVTVPSSRWPSETFTCNVAHPASKTKVDKPVPKRENGRVPRPPDCPKCPAPEMLGGPSVFIFPPKPKDTLLIARTPEVTCVVVDLDPEDPEVQISWFVDGKQMQTAKTQPREEQFNGTYRVVSVLPIGHQDWLKGKQFTCKVNNKALPSPIERTISKARGQAHQPSVYVLPPSREELSKNTVSLTCLIKDFFPPDIDVEWQSNGQQEPESKYRTTPPQLDEDGSYFLYSKLSVDKSRWQRGDTFICNVMHEALHNHYTQESLSHSPGK
pKd: 8.27

binder: wild-type canine IgGB (65) mAb (antibody, part only; not given: variable domains of unnamed mAb, not shown: another chain or arm of the molecule; small tags and cut ends) constant: ASTTAPSVFPLAPSCGSTSGSTVALACLVSGYFPEPVTVSWNSGSLTSGVHTFPSVLQSSGLYSLSSMVTVPSSRWPSETFTCNVAHPASKTKVDKPVPKRENGRVPRPPDCPKCPAPEMLGGPSVFIFPPKPKDTLLIARTPEVTCVVVDLDPEDPEVQISWFVDGKQMQTAKTQPREEQFNGTYRVVSVLPIGHQDWLKGKQFTCKVNNKALPSPIERTISKARGQAHQPSVYVLPPSREELSKNTVSLTCLIKDFFPPDIDVEWQSNGQQEPESKYRTTPPQLDEDGSYFLYSKLSVDKSRWQRGDTFICAVMHEALHNHYTQESLSHSPGK
pKd: 7.51

binder: canine IgGB (65) mAb with mutation A426C (antibody, part only; not given: Variable domains, not shown: another chain or arm of the molecule) constant: ASTTAPSVFPLAPSCGSTSGSTVALACLVSGYFPEPVTVSWNSGSLTSGVHTFPSVLQSSGLYSLSSMVTVPSSRWPSETFTCNVAHPASKTKVDKPVPKRENGRVPRPPDCPKCPAPEMLGGPSVFIFPPKPKDTLLIARTPEVTCVVVDLDPEDPEVQISWFVDGKQMQTAKTQPREEQFNGTYRVVSVLPIGHQDWLKGKQFTCKVNNKALPSPIERTISKARGQAHQPSVYVLPPSREELSKNTVSLTCLIKDFFPPDIDVEWQSNGQQEPESKYRTTPPQLDEDGSYFLYSKLSVDKSRWQRGDTFICCVMHEALHNHYTQESLSHSPGK
pKd: 8.05

binder: canine IgGB (65) mAb with mutation A426L (antibody, part only; not given: variable domains of unnamed mAb, not shown: another chain or arm of the molecule) constant: ASTTAPSVFPLAPSCGSTSGSTVALACLVSGYFPEPVTVSWNSGSLTSGVHTFPSVLQSSGLYSLSSMVTVPSSRWPSETFTCNVAHPASKTKVDKPVPKRENGRVPRPPDCPKCPAPEMLGGPSVFIFPPKPKDTLLIARTPEVTCVVVDLDPEDPEVQISWFVDGKQMQTAKTQPREEQFNGTYRVVSVLPIGHQDWLKGKQFTCKVNNKALPSPIERTISKARGQAHQPSVYVLPPSREELSKNTVSLTCLIKDFFPPDIDVEWQSNGQQEPESKYRTTPPQLDEDGSYFLYSKLSVDKSRWQRGDTFICLVMHEALHNHYTQESLSHSPGK
pKd: 8.29
